// data source = the RNAGym collection of RNA variant scans (doi:10.7554/elife.90254)

B1: LINE1-full (parent)
chain: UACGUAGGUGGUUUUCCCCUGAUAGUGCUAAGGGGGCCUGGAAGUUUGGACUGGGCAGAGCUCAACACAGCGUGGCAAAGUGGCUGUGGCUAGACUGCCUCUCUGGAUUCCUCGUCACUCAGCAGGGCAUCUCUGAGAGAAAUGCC

- Variants of: B1
- assay explanation: self-cleavage, relative activity (ratio to wild type); higher = more cleavage; in vitro, sequencing; the parent is a self-cleaving ribozyme
readout type: self-cleavage
Answer as a number with no unit attached.

• U87C C113U = 0

Ask: # get_value(readout='self-cleavage', item= U100A A142G )
Result: 0.77

Ask: # get_value(readout='self-cleavage', item= G72A A107G )
Result: 1.36

Ask: # get_value(readout='self-cleavage', item= U29C G114A )
Result: 1.38
